Molecular target: UniProt:P30561
Sequence (P30561 whole entry, looked up): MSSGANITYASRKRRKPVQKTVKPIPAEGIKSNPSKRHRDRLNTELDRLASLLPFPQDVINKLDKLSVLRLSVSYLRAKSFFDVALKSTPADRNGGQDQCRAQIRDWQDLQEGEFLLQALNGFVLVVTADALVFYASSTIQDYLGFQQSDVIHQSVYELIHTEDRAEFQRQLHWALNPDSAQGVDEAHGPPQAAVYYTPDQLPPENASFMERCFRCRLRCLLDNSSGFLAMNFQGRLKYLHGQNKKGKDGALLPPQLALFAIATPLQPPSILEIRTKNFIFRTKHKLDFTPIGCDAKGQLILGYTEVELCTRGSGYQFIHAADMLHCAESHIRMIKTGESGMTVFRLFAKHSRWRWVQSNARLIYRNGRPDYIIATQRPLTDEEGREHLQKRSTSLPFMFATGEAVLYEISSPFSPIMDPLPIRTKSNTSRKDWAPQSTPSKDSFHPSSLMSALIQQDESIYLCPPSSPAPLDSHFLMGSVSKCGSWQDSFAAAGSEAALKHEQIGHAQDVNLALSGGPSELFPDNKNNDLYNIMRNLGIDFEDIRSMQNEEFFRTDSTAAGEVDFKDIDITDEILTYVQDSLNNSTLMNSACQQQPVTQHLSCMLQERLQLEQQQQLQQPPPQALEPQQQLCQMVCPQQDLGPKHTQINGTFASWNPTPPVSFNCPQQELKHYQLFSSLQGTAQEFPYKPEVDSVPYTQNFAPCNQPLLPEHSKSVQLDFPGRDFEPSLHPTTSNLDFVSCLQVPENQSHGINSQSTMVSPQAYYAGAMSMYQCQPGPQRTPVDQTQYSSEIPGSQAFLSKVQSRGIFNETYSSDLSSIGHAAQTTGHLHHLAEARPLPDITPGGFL
Assay: Activity at AhR expressed in mouse H1L1.1c2 cells co-expressing XRE assessed as increase of benzo[b]fluoranthene-induced luciferase gene expression at 1 uM after 72 hrs
measured-metric: Activity (%)
// units = %; emit number, no label

>>> data_value("CC(C)(C)c1cc(/C=C/C=C/c2cc(O)cc(O)c2)ccc1O")
1.6
>>> data_value("CC(C)(C)c1cc(/C=C/c2cc(O)cc(O)c2)cc(C(C)(C)C)c1O")
1.5
>>> data_value("CCC(CC)c1cc(/C=C/C=C/c2cc(O)cc(O)c2)ccc1O")
1.7
>>> data_value("CC(C)(C)c1cc(/C=C/c2cc(O)cc(O)c2)ccc1O")
1.5
>>> data_value("CC(C)(C)c1cc(/C=C/C=C/c2cc(O)cc(O)c2)cc(C(C)(C)C)c1O")
1.6
>>> data_value("CC(C)(C)c1cc(/C=C/c2cc(C(C)(C)C)c(O)c(C(C)(C)C)c2)cc(C(C)(C)C)c1O")
1.4

# context switch: different molecule, same Activity
The molecule listed as `Oc1ccc(/C=C/C=C/c2cc(O)cc(O)c2)cc1` has a reported Activity of 1.7
